Assay: qHTS assay for small molecules that induce genotoxicity in human embryonic kidney cells expressing luciferase-tagged ATAD5 - cell viability (AID 651634); further: nearly all actives have a fitted effect of over 25% in size
Details: HEK293T ATAD5-luc cells viability, CellTiter-Fluor, 15.5 h; series mostly up to 83.3 µM
Results filed as inconclusive are left out. Active and inactive are the calls of the source. The call rests on the fitted dose curve.
measuredEndpoint: outcome

Consider the worked cases shown below.
• CC(C)C[C@H](NC(=O)CNC(=O)[C@H](Cc1ccc(O)cc1)NC(=O)[C@H](CO)NC(=O)[C@H](Cc1c[nH]c2ccccc12)NC(=O)[C@H](Cc1cnc[nH]1)NC(=O)[C@@H]1CCC(=O)N1)C(=O)N[C@@H](CCCN=C(N)N)C(=O)N1CCC[C@H]1C(=O)NCC(N)=O (stereo in doubt) = inactive
• Cc1cccc(C)c1NC(=O)c1ccccc1C(=O)O = inactive
• CC(CC=O)CCCC(C)(C)O (centres undefined) = inactive
• CC(C)=CCOC(=O)c1ccccc1 = inactive
• CCCCCCCCCCCCCC = inactive
• CC(=O)c1sc(C)nc1C = inactive
• CCOC(=O)/C=C/c1ccccc1 = inactive
• CC(C)C(=O)OCCc1ccccc1 = inactive

Recorded outcome for CN(CCOc1ccc(NS(C)(=O)=O)cc1)CCc1ccc(NS(C)(=O)=O)cc1 , please?
inactive

// repeat for C[C@@H]1O[C@@H](O[C@@H]2[C@@H](O)[C@H](OCCc3ccc(O)c(O)c3)O[C@H](CO[C@@H]3O[C@H](CO)[C@@H](O)[C@H](O)[C@H]3O)[C@H]2OC(=O)/C=C/c2ccc(O)c(O)c2)[C@H](O)[C@H](O)[C@H]1O and report
inactive

Lookup C=C(C)C(=O)OCCNC(C)(C)C
inactive

Here is the next compound: CCNC(=O)C1CC(C)CCC1C(C)C (centres undefined)
inactive

Next compound: CCCCCCOc1ccccc1C(N)=O
inactive

// next record CN(C)CCOCCO
inactive

Okay, and BrCc1cccc(Oc2ccccc2)c1 ?
inactive

Same thing, different compound: CCCCCCN
inactive

Again, but for O=C(O)Cc1ccc(Cl)cc1Cl
inactive

Try the compound O=C(O)c1ccc(Cl)cc1Cl
inactive

###

Test: qHTS assay to identify small molecule agonists of the NFkB signaling pathway (AID 1159509)
Settings: NFkB-bla ME-180 cells, beta-lactamase FRET ratio, 5 h; series mostly up to 61 µM
Results filed as inconclusive are left out. Calls of active or inactive are those of the source. The call rests on the fitted dose curve; in most records, active means well fitted curve in the direction sought with a large enough effect in the signal ratio in the repeat runs (not every such curve was filed as active); inconclusive means weak or mixed curves, or a change in a side signal; inactive means no such curve, though single readings can be large or run the other way; the % refers to the signal ratio.
measuredEndpoint: activation

Recorded results for 5 compounds are shown here.
• Nc1ccc([N+](=O)[O-])c(N)c1 = inactive
• CC(CN)CC(C)(C)CCN (centres undefined) = inactive
• CN(C)C(=O)CNC(=O)Cc1ccccc1 = inactive
• O=C1c2ccccc2C(=O)c2cc(S(=O)(=O)O)ccc21 = inactive
• CCCCCCCCC1CCC(=O)O1 (centres undefined) = inactive

# get_value(readout='activation', item= CC(C)c1ccc2cc(C(C)C)ccc2c1 )
inactive

// same read-out, input: C[C@H](N)[C@H](O)c1cccc(O)c1
inactive

Item: O=C(c1ccc(O)cc1)c1ccc(O)c(O)c1O
inactive

Param item: CCC(C)(CCC(C)C)C(=O)O (centres undefined)
inactive

Request: CN(C)c1ccc(C=O)cc1
inactive

What do you get for Brc1ccc(-c2ccccc2)cc1 ?
inactive

Try the compound O=C(NCCc1c[nH]c2ccccc12)c1cccnc1
inactive

// same read-out, input: CCCC/C=C/C=C\C=O
inactive

Same thing, different compound: C[C@@H](O)[C@H]1C(=O)N2C(C(=O)O)=C(SCCN=CN)C[C@H]12
inactive

The origin of these recorded values is PubChem BioAssay (Tox21).
